# experimental target: Sodium-dependent dopamine transporter (Rattus norvegicus) (UniProt P23977)
# Sequence (P23977 whole entry): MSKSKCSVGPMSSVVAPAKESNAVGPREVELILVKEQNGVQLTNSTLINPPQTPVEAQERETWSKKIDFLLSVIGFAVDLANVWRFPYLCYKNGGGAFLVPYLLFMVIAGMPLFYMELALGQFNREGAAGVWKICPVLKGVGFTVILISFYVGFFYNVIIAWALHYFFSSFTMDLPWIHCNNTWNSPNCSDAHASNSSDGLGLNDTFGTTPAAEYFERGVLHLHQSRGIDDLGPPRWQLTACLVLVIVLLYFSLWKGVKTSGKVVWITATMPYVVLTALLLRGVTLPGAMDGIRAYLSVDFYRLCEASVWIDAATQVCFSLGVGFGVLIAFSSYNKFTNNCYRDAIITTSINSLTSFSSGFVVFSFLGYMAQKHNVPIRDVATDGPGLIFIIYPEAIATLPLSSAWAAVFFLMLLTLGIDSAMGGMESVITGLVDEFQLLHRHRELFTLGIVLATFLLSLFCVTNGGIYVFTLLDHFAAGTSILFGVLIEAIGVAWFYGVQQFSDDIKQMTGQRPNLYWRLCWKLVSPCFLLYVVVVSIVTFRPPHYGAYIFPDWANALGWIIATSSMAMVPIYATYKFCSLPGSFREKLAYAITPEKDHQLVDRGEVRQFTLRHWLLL
# protocol: Inhibition of tritiated dopamine (DA) uptake at 0.1 uM concentration
# Assay type: functional
Provide the reported inhibition of each item.
Express the reported value numerically, then name its unit.

**Q:** inhibition of `Clc1cccc([C@@H]2CN3CCC[C@H]3c3ccccc32)c1` on Sodium-dependent dopamine transporter (Rattus norvegicus) (UniProt P23977)?
**A:** 67%

**Q:** inhibition of `COc1ccccc1[C@@H]1CN2CCC[C@H]2c2ccccc21` on Sodium-dependent dopamine transporter (Rattus norvegicus) (UniProt P23977)?
**A:** -3%

**Q:** inhibition of `COc1cccc2c1[C@H](c1ccccc1)CN1CCC[C@@H]21` on Sodium-dependent dopamine transporter (Rattus norvegicus) (UniProt P23977)?
**A:** 0%
